# procedure.summary: Solubility
# Assay type: physicochemical
endpoint.label: solubility (µg/mL)

> print(dat)
                                   compound  reported.result
1  CCC(CC)(c1ccc(C(=O)NCCCCCC(=O)NO)cc1)c1ccc(OCC(O)C(C)(C)C)c(C)n1 (stereo not shown)             4.45
2  CCC(CC)(c1ccc(C(=O)NCCCCCC(=O)NO)cc1)c1ccc(OCC(O)C(C)(C)C)c(C)c1 (stereo not shown) [DK-406, reference compound]             4.40
3  CCC(CC)(c1ccc(C(=O)NCCCC(=O)NO)cc1)c1ccc(OCC(O)C(C)(C)C)c(C)n1 (stereo not shown)            10.71
4  CCC(CC)(c1ccc(C(=O)NCCCCC(=O)NO)cc1)c1ccc(OCC(O)C(C)(C)C)c(C)n1 (stereo not shown)             9.19
